system_under_test: CYP2D6 (Homo sapiens)
Construct: assay run by Bienta (Enamine Biology Services)
Sequence (P10635 whole entry): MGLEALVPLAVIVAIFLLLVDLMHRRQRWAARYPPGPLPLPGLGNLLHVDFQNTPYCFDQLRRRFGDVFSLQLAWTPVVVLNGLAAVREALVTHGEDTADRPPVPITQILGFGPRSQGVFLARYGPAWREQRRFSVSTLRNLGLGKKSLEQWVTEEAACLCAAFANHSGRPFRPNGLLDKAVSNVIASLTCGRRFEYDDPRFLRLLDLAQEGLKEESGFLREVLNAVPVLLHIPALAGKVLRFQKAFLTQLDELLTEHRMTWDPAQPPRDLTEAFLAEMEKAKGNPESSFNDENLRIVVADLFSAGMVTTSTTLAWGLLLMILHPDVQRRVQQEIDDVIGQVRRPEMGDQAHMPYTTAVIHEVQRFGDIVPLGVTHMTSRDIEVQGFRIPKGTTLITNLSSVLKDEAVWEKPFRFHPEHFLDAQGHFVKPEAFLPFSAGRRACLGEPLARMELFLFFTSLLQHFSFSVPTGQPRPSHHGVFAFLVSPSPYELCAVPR
assay_info: In vitro CYP450 inhibition assay (Vivid)
Type: biochemical
settings: probe fluorogenic Vivid CYP450 substrate (not named)
recorded_metric: inhibition at 25 min, 10 µM (%)
Write down the numeric answer in % and omit the unit.

O=P(O)(O)CP(=O)(O)OC[C@H]1O[C@@H](n2ccc3c(-c4ccc5c(c4)CCCC5)nc(Cl)nc32)[C@H](O)[C@@H]1O ... 6
O=P(O)(O)CP(=O)(O)OC[C@H]1O[C@@H](n2ccc3c(-c4ccc(F)c5ccccc45)nc(Cl)nc32)[C@H](O)[C@@H]1O ... -6

Q: Entry under review: O=P(O)(O)CP(=O)(O)OC[C@H]1O[C@@H](n2ccc3c(-c4ccc5ccccc5c4)ncnc32)[C@H](O)[C@@H]1O . Reported inhibition at 25 min, 10 µM?
A: -17

Q: Try this compound next: Cc1nc(-c2cccc3ccccc23)c2ccn([C@@H]3O[C@H](COP(=O)(O)CP(=O)(O)O)[C@@H](O)[C@H]3O)c2n1 [18E.6]
A: -18

Q: Try this compound next: O=P(O)(O)CP(=O)(O)OC[C@H]1O[C@@H](n2ccc3c(-c4ccc5c(c4)CCCC5)nc(I)nc32)[C@H](O)[C@@H]1O [27H.23]
A: -12

Q: Try this compound next: O=P(O)(O)CP(=O)(O)OC[C@H]1O[C@@H](n2ccc3c(-c4cccc5ccncc45)ncnc32)[C@H](O)[C@@H]1O
A: -10

Q: Try this compound next: O=P(O)(O)CP(=O)(O)OC[C@H]1O[C@@H](n2ccc3c(-c4cccc5c4CCCC5)nc(Cl)nc32)[C@H](O)[C@@H]1O
A: -13
